- testedOn: T1, Human CXCR2 (human, UniProt P25025 1-360)
- T1 construct: Some cell lines carry an N-terminal 3xHA tag; also called hCXCR2; huCXCR2
- T1 sequence: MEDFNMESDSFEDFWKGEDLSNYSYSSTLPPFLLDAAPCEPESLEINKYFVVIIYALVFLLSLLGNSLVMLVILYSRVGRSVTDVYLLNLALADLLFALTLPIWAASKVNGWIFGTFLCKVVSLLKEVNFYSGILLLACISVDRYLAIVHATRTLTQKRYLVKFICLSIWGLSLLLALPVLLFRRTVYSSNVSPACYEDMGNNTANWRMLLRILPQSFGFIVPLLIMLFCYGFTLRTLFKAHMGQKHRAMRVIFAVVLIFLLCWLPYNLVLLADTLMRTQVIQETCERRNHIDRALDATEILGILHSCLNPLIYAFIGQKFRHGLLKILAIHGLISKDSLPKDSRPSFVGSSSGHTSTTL
- measurementDescription: FACS competition vs 3 nM FMAT-Blue Gro-α

>  <binder>
137B7 (VHH, Tested as periplasmic extract (pAX50) and as purified His6-tagged protein (pAX100); also called 137B07; not shown: C-terminal c-myc tag and His6 tag coded by the vector) VHH: EVQLVESGGGLVQPGGSVRLSCVASGIIFRLSALGWTRQGPGKAREWVAGINSDGTTNYADPVKGRFTISRDNAKNTIYLHMDMLKPEDTAVYYCASGKYRGQGTQVTVSS

>  <unitString>
%

>  <% inhibition of max>
93.5

$$$$
>  <binder>
163E3 (VHH, Tested as periplasmic extract (pAX50) and as purified His6-tagged protein (pAX100); also called 163E03; not shown: C-terminal c-myc tag and His6 tag coded by the vector) VHH: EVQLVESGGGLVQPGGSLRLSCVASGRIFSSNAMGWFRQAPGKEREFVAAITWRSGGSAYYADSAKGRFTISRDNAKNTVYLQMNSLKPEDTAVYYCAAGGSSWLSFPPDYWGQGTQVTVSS

>  <unitString>
%

>  <% inhibition of max>
92.4

$$$$
>  <binder>
127D1 (VHH, Tested as periplasmic extract (pAX50) and as purified His6-tagged protein (pAX100); also called 127D01; not shown: C-terminal c-myc tag and His6 tag coded by the vector) VHH: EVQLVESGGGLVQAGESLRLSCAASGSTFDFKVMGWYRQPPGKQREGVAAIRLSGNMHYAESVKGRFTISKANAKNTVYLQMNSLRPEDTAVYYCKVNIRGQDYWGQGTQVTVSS

>  <unitString>
%

>  <% inhibition of max>
61.1

$$$$
